Assignment: determine reported melting point for the given compounds.

Param item = Cc1cn2cc(-c3cc4ccc(N5CCN[C@H](C)C5)cc4oc3=O)cc2c(C)n1 ; retrieve measured melting point.
205 to 209 °C

Returns the measured melting point for the input compound. Input: COc1cccc(-c2cc3ccc(N4CCN[C@@H](C)C4)cc3oc2=O)n1
155 to 157 °C

Look up melting point: CN1CCCN(c2cc(F)c3cc(-c4cn5ccsc5n4)c(=O)oc3c2)CC1
205 to 207 °C

Fill in: melting point of Cc1ccn2cc(-c3cc4ccc(N5C[C@H]6CC[C@@H](C5)N6C)cc4oc3=O)nc2c1 is ___
224 to 229 °C

Request the reported melting point associated with CN1CCN(c2cc(F)c3cc(-c4cn5ccccc5n4)c(=O)oc3c2)CC1
263 to 269 °C

Looking for the measured melting point of O=c1oc2cc(N3CCNCC3)ccc2cc1-c1ccc2c(c1)OCO2 , can you help?
218 to 220 °C

What value of melting point has been reported for the following compound? Cc1ccc(Nc2cc3ccc(N4CCNCC4)cc3oc2=O)nc1
225 to 228 °C

Using the record for Cc1cn2cc(-c3cc4ccc(N5CCN(C6CCC6)CC5)cc4oc3=O)cc2c(C)n1 , report its melting point.
217 to 220 °C

If you can, please state the reported melting point value of O=c1oc2cc(N3CCNCC3)ccc2cc1-c1nc2cc(F)ccc2[nH]1 .
295 to 300 °C

###

Measured Quantity: melting point

Look at this compound and give its reported melting point. CCC1CN(c2ccc3cc(-c4cn5cc(C)nc(C)c5n4)c(=O)oc3c2)CCN1 (stereo not shown)
211 to 215 °C

What value of measured melting point is listed for Cc1ccn2cc(-c3cc4c(F)cc(N5CCNCC5)cc4oc3=O)nc2c1 ?
268 to 278 °C

Looking for the measured melting point of CN(C)[C@H]1[C@@H]2CN(c3ccc4cc(-c5cn6ccsc6n5)c(=O)oc4c3)C[C@@H]21 , can you help?
233 to 235 °C

# get_value(readout='melting point', item= Cc1cn2cc(-c3cc4ccc(N5CCN[C@@H](C)C5)cc4oc3=O)nc2s1 )
177 to 182 °C

###

Measured Quantity: melting point

// returns reported melting point for input COc1ccn2cc(-c3cc4ccc(N5CCN[C@@H](C)C5)cc4oc3=O)nc2c1
250 to 256 °C

May I ask what melting point has been recorded for CNCCCc1ccc2cc(-c3cc(F)c4nc(C)cn4c3)c(=O)oc2c1 ?
163 to 166 °C

Given CC1(C)CN(c2ccc3cc(-c4cn5cccc(F)c5n4)c(=O)oc3c2)CCN1 , state its recorded melting point.
180 to 182 °C

Param item = Cc1cn2cc(-c3cc4ccc(N5CCN6CCC[C@H]6C5)cc4oc3=O)nc2c(C)n1 ; retrieve measured melting point.
261 to 263 °C

###

Field: melting point. Provide a value for each of the compounds that follow.

If you can, please state the reported melting point value of Cn1c(-c2cc3ccc(N4CCN(C(=O)OCc5ccccc5)CC4)cc3oc2=O)nc2ccccc21 .
253 to 254 °C

Name the recorded melting point for O=c1oc2cc(N3CCNCC3)cc(F)c2cc1-c1cc(F)cc(F)c1 .
193 to 198 °C

Which melting point is listed for O=c1oc2cc(N3CCCNCC3)ccc2cc1-c1cn2ccncc2n1 ?
247 to 249 °C

Field request: melting point | item: CC(=O)O.CCN1CCN(c2ccc3cc(-c4ccc5nc(C)sc5c4)c(=O)oc3c2)C[C@@H]1C
180 to 182 °C

melting point for Cc1cn2cc(-c3cc4ccc(CNC(C)C)cc4oc3=O)nc2c(C)n1 ?
285 to 291 °C

State the recorded melting point for this entry: CN1CCN(c2ccc3cc(-c4cn5cc(F)cnc5n4)c(=O)oc3c2)CC1
275 to 280 °C

Looking for the measured melting point of C[C@@H]1CN(c2ccc3cc(-c4cn5ccc(C(F)(F)F)cc5n4)c(=O)oc3c2)C[C@H](C)N1C , can you help?
267 to 275 °C

Consider the compound shown here: COCCN1CCN(c2ccc3cc(-c4cc5cc(C)nc(C)c5o4)c(=O)oc3c2)CC1 What is its recorded melting point?
235 to 237 °C

###

Answer each item with its documented melting point.

What value of melting point has been recorded for this entry: Cc1cn2cc(-c3cc4ccc(N5CCN(C)CC5)cc4oc3=O)cc2cn1
212 to 214 °C

Field request: melting point | item: Cc1ccc2nc(-c3cc4ccc(N5CCCN(C)CC5)cc4oc3=O)cn2c1
175 to 180 °C

Which measured melting point value corresponds to Cc1cn2cc(-c3cc4ccc(N5C[C@@H]6CCCN(CCO)[C@@H]6C5)cc4oc3=O)nc2c(C)n1 ?
200 to 210 °C

Item O=c1oc2cc(N3CCNCC3)ccc2cc1-c1cccc(C(F)(F)F)n1 has what recorded melting point?
158 to 160 °C

Please report the recorded melting point for COc1ccc(-c2cc3ccc(N4C[C@@H](C)N[C@@H](C)C4)cc3oc2=O)cc1C .
111 to 113 °C

Record request: melting point value, item C[C@@H]1CN(c2cc(F)c3cc(-c4cn5cccc(Cl)c5n4)c(=O)oc3c2)C[C@H](C)N1
290 to 300 °C

Reported melting point for O=c1oc2cc(CN3CCC(O)CC3)ccc2cc1-c1nc2c(Cl)cccc2s1 : what is it?
193 to 196 °C

// query melting point value for entry Cc1cc2cc(-c3cc4ccc(N5CCNCC5)cc4oc3=O)oc2c(C)n1
218 to 220 °C

###

Can you tell me melting point for the items I'm about to list?
Counter-ions that a name gives are not always drawn.

So what does the record say about melting point for CN1CCCN(c2ccc3cc(-c4cn5cccc(C(F)(F)F)c5n4)c(=O)oc3c2)CC1 [Compound 293] ?
196 to 199 °C

What does the record list as melting point for Cc1cn2cc(-c3cc4ccc(CCCCN(C)CCO)cc4oc3=O)nc2c(C)n1 [Compound 903] ?
156 to 160 °C

May I ask what melting point has been recorded for Cl.O=c1oc2cc(N3CCNCC3)ccc2cc1-c1nc2cccc(Cl)c2s1 [Compound 6] ?
320 °C (dec.)

Report melting point for CCN1CCN(c2ccc3cc(-c4cn5ccsc5n4)c(=O)oc3c2)CC1 [Compound 201] please.
202 to 205 °C

I'd like to know its melting point. The compound in question is C[C@H]1CN(c2ccc3cc(-c4cn5cccc(F)c5n4)c(=O)oc3c2)CCN1C [Compound 585]
188 to 192 °C

Recorded melting point of CN1CCN(c2ccc3cc(-c4ccn(C)n4)c(=O)oc3c2)CC1 [Compound 73] , please.
183 to 186 °C

Field request: melting point | item: Cc1cn2cc(-c3cc4ccc(N5CCN6CCC[C@H]6C5)cc4oc3=O)cc2cn1 [Compound 643]
182 to 184 °C

# input compound: Cc1cc2cc(-c3cc4ccc(N5CCN6CCC[C@H]6C5)cc4oc3=O)oc2c(C)n1 [Compound 745] ; wanted: its melting point
203 to 205 °C

Quick one: melting point for Cc1cn2cc(-c3cc4ccc(N5CCN[C@@H](C)C5)cc4oc3=O)cc2c(C)n1 [Compound 680] ?
162 to 165 °C

Fill in: melting point of Cc1cn2cc(-c3cc4ccc(CCCNCc5ccccc5)cc4oc3=O)nc2c(C)n1 [Cpd 933] is ___
143 to 147 °C

Need melting point, item Cc1cn2cc(-c3cc4ccc(N5CC[C@H](NC(C)C)C5)cc4oc3=O)cc2c(C)n1 [Compound 725]
217 to 220 °C

For the compound shown here, Cc1cn2cc(-c3cc4ccc(N[C@H]5CCN(C)C5)cc4oc3=O)nc2c(C)n1 [Compound 657] , give the reported melting point.
223 to 233 °C

State the recorded melting point for this entry: Cc1ccc2nc(-c3cc4ccc(N(C)Cc5cccnc5)cc4oc3=O)cn2c1 [Compound 221]
220 to 223 °C

GET /values?readout=melting point&item= Cc1cccn2cc(-c3cc4ccc(N5CCN[C@H](C)C5)cc4oc3=O)nc12 [Compound 247]
299 °C (dec.)

Look at this compound and give its reported melting point. Cc1cn2cc(-c3cc4ccc(C5CCN(CC(C)C)CC5)cc4oc3=O)nc2c(C)n1 [Compound 914]
191 to 198 °C

Could you tell me which melting point is on file for Cc1cn2cc(-c3cc4ccc(N5CCC(N)CC5)cc4oc3=O)nc2c(C)n1 [Compound 919] ?
262 to 269 °C

Sample O=c1oc2cc(N3CCNCC3)cc(F)c2cc1-c1ccccn1 [Compound 161] — what was its melting point?
221 to 225 °C

What value of melting point has been reported for the following compound? CCN1CCC(Oc2ccc3cc(-c4cn5cc(C)nc(C)c5n4)c(=O)oc3c2)CC1 [Compound 898]
175 to 177 °C

// melting point lookup, key: CN1CCCN(c2ccc3cc(-c4cn5cc(C6CC6)cc(F)c5n4)c(=O)oc3c2)CC1 [Compound 499]
234 to 244 °C

Using the record for Cc1nccn2cc(-c3cc4ccc(N5C[C@@H](C)N[C@@H](C)C5)cc4oc3=O)cc12 [Compound 554] , report its melting point.
200 to 203 °C

# query: melting point of entry Cc1cn2cc(-c3cc4ccc(CN5CCN(C)CC5)cc4oc3=O)nc2c(C)n1 [Compound 849]
220 to 223 °C

For Cc1cc(C)c2nc(-c3cc4ccc(N5CCCN(C)CC5)cc4oc3=O)cn2c1 [Compound 389] , what is its reported melting point?
164 to 169 °C

Consider the compound O=C(Nc1ccccc1)c1cc2ccc(N3CCNCC3)cc2oc1=O (as salt: trifluoroacetate) [Cpd 3] and give its measured melting point.
238 to 248 °C

Would you kindly share the measured melting point for Cc1cn2cc(-c3cc4ccc(N5CCN6CCC[C@@H]6C5)cc4oc3=O)nc2c(C)n1 [Compound 632] ?
255 to 258 °C

State the recorded melting point for this entry: C[C@H]1CN(c2ccc3cc(-c4cccc(F)c4F)c(=O)oc3c2)CCN1 [Compound 546]
116 to 118 °C

// lookup melting point for Cc1cn2cc(-c3cc4ccc(CCCN(C)CCO)cc4oc3=O)nc2c(C)n1 [Compound 880]
173 to 176 °C

Entry CN1CCCN(c2ccc3cc(-c4cn5ccc(C(F)(F)F)cc5n4)c(=O)oc3c2)CC1 [Compound 276] has what melting point?
244 to 249 °C

Consider the compound shown here: CN1CCN(c2cc(F)c3cc(-c4cn5ccsc5n4)c(=O)oc3c2)CC1 [Compound 372] What is its recorded melting point?
268 to 271 °C

Which value of melting point has been reported for O=c1oc2cc(N3CCNCC3)ccc2cc1-c1nc2cncnc2[nH]1 [Compound 314] in the records?
291 to 297 °C

Item under review: Cc1cn2cc(-c3cc4ccc(N5CCN(CCO)CC5)cc4oc3=O)cc2c(C)n1 [Compound 685] . Reported melting point?
160 to 164 °C

Any idea what melting point was measured for Cc1cnc2nc(-c3cc4ccc(N5CCN[C@H](C)C5)cc4oc3=O)cn2c1 [Compound 463] ?
258 to 261 °C

Give its melting point value. Item: O=c1oc2cc(N3CCNCC3)ccc2cc1-c1cc2ccccc2o1 [Compound 602]
208 to 211 °C

State the recorded melting point for this entry: COc1ccc(-c2cc3ccc(N4CCN[C@@H](C)C4)cc3oc2=O)cc1F [Compound 545]
141 to 143 °C

Look up melting point for this compound: Cc1cc(F)c2nc(-c3cc4ccc(N5CCN(C)CC5)cc4oc3=O)cn2c1 [Compound 353]
252 to 262 °C
